B1: EEHEE_rd4_0363 (parent)
chain: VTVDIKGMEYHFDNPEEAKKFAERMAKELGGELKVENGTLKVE

- Variants of: B1
- TEST_PROTOCOL: folding stability dG (cDNA display proteolysis); higher = more stable
- CONDITION_DETAILS: PBS, room temperature
QUANTITY_KIND: folding stability dG (kcal/mol)

MUTATION_STRING: G38S
QUANTITY_KIND: folding stability dG
UNIT_ABBREVIATION: kcal/mol
QUANTITATIVE_READOUT: 1.19

MUTATION_STRING: A26Y
QUANTITY_KIND: folding stability dG
UNIT_ABBREVIATION: kcal/mol
QUANTITATIVE_READOUT: 0.983

MUTATION_STRING: E23I
QUANTITY_KIND: folding stability dG
UNIT_ABBREVIATION: kcal/mol
QUANTITATIVE_READOUT: 1.87

MUTATION_STRING: K20M
QUANTITY_KIND: folding stability dG
UNIT_ABBREVIATION: kcal/mol
QUANTITATIVE_READOUT: 1.88

MUTATION_STRING: V3C
QUANTITY_KIND: folding stability dG
UNIT_ABBREVIATION: kcal/mol
QUANTITATIVE_READOUT: 1.34

MUTATION_STRING: V1R
QUANTITY_KIND: folding stability dG
UNIT_ABBREVIATION: kcal/mol
QUANTITATIVE_READOUT: 1.29

MUTATION_STRING: R24Q
QUANTITY_KIND: folding stability dG
UNIT_ABBREVIATION: kcal/mol
QUANTITATIVE_READOUT: 2.04

MUTATION_STRING: F12R
QUANTITY_KIND: folding stability dG
UNIT_ABBREVIATION: kcal/mol
QUANTITATIVE_READOUT: -0.751

MUTATION_STRING: E16P
QUANTITY_KIND: folding stability dG
UNIT_ABBREVIATION: kcal/mol
QUANTITATIVE_READOUT: -0.084

MUTATION_STRING: L40H
QUANTITY_KIND: folding stability dG
UNIT_ABBREVIATION: kcal/mol
QUANTITATIVE_READOUT: 0.973

MUTATION_STRING: F21H
QUANTITY_KIND: folding stability dG
UNIT_ABBREVIATION: kcal/mol
QUANTITATIVE_READOUT: -0.264

MUTATION_STRING: T2H
QUANTITY_KIND: folding stability dG
UNIT_ABBREVIATION: kcal/mol
QUANTITATIVE_READOUT: 1.26

MUTATION_STRING: N37E
QUANTITY_KIND: folding stability dG
UNIT_ABBREVIATION: kcal/mol
QUANTITATIVE_READOUT: 1.52

MUTATION_STRING: G31S
QUANTITY_KIND: folding stability dG
UNIT_ABBREVIATION: kcal/mol
QUANTITATIVE_READOUT: 1.39

MUTATION_STRING: N14G
QUANTITY_KIND: folding stability dG
UNIT_ABBREVIATION: kcal/mol
QUANTITATIVE_READOUT: 1.08

MUTATION_STRING: A22Q
QUANTITY_KIND: folding stability dG
UNIT_ABBREVIATION: kcal/mol
QUANTITATIVE_READOUT: 0.746

MUTATION_STRING: V1C
QUANTITY_KIND: folding stability dG
UNIT_ABBREVIATION: kcal/mol
QUANTITATIVE_READOUT: 2.67

MUTATION_STRING: V1W
QUANTITY_KIND: folding stability dG
UNIT_ABBREVIATION: kcal/mol
QUANTITATIVE_READOUT: 2.81

MUTATION_STRING: G31W
QUANTITY_KIND: folding stability dG
UNIT_ABBREVIATION: kcal/mol
QUANTITATIVE_READOUT: 2.33

MUTATION_STRING: V42L
QUANTITY_KIND: folding stability dG
UNIT_ABBREVIATION: kcal/mol
QUANTITATIVE_READOUT: 1.74

MUTATION_STRING: N37V
QUANTITY_KIND: folding stability dG
UNIT_ABBREVIATION: kcal/mol
QUANTITATIVE_READOUT: 1.14

MUTATION_STRING: E28F
QUANTITY_KIND: folding stability dG
UNIT_ABBREVIATION: kcal/mol
QUANTITATIVE_READOUT: 1.95

MUTATION_STRING: K19D
QUANTITY_KIND: folding stability dG
UNIT_ABBREVIATION: kcal/mol
QUANTITATIVE_READOUT: 0.524

MUTATION_STRING: D13K
QUANTITY_KIND: folding stability dG
UNIT_ABBREVIATION: kcal/mol
QUANTITATIVE_READOUT: 1.82

MUTATION_STRING: Y10Q
QUANTITY_KIND: folding stability dG
UNIT_ABBREVIATION: kcal/mol
QUANTITATIVE_READOUT: 0.239

MUTATION_STRING: N37S
QUANTITY_KIND: folding stability dG
UNIT_ABBREVIATION: kcal/mol
QUANTITATIVE_READOUT: 1.38

MUTATION_STRING: M8N
QUANTITY_KIND: folding stability dG
UNIT_ABBREVIATION: kcal/mol
QUANTITATIVE_READOUT: 1.58

MUTATION_STRING: L33Y
QUANTITY_KIND: folding stability dG
UNIT_ABBREVIATION: kcal/mol
QUANTITATIVE_READOUT: 1.43

MUTATION_STRING: V42Y
QUANTITY_KIND: folding stability dG
UNIT_ABBREVIATION: kcal/mol
QUANTITATIVE_READOUT: 0.816

MUTATION_STRING: K27F
QUANTITY_KIND: folding stability dG
UNIT_ABBREVIATION: kcal/mol
QUANTITATIVE_READOUT: 2.35

MUTATION_STRING: G7V
QUANTITY_KIND: folding stability dG
UNIT_ABBREVIATION: kcal/mol
QUANTITATIVE_READOUT: 0.407

MUTATION_STRING: G31A
QUANTITY_KIND: folding stability dG
UNIT_ABBREVIATION: kcal/mol
QUANTITATIVE_READOUT: 2.15

MUTATION_STRING: K27H
QUANTITY_KIND: folding stability dG
UNIT_ABBREVIATION: kcal/mol
QUANTITATIVE_READOUT: 1.87

MUTATION_STRING: K27W
QUANTITY_KIND: folding stability dG
UNIT_ABBREVIATION: kcal/mol
QUANTITATIVE_READOUT: 2.28

MUTATION_STRING: A18K
QUANTITY_KIND: folding stability dG
UNIT_ABBREVIATION: kcal/mol
QUANTITATIVE_READOUT: -0.683

MUTATION_STRING: K34C
QUANTITY_KIND: folding stability dG
UNIT_ABBREVIATION: kcal/mol
QUANTITATIVE_READOUT: 1.95

MUTATION_STRING: V35H
QUANTITY_KIND: folding stability dG
UNIT_ABBREVIATION: kcal/mol
QUANTITATIVE_READOUT: 1.57

MUTATION_STRING: V35Y
QUANTITY_KIND: folding stability dG
UNIT_ABBREVIATION: kcal/mol
QUANTITATIVE_READOUT: 2.48

MUTATION_STRING: G7N
QUANTITY_KIND: folding stability dG
UNIT_ABBREVIATION: kcal/mol
QUANTITATIVE_READOUT: 0.745

MUTATION_STRING: M25G
QUANTITY_KIND: folding stability dG
UNIT_ABBREVIATION: kcal/mol
QUANTITATIVE_READOUT: 0.03

MUTATION_STRING: I5L
QUANTITY_KIND: folding stability dG
UNIT_ABBREVIATION: kcal/mol
QUANTITATIVE_READOUT: 1.23

MUTATION_STRING: V3P
QUANTITY_KIND: folding stability dG
UNIT_ABBREVIATION: kcal/mol
QUANTITATIVE_READOUT: 0.059

MUTATION_STRING: K20G
QUANTITY_KIND: folding stability dG
UNIT_ABBREVIATION: kcal/mol
QUANTITATIVE_READOUT: 1.18

MUTATION_STRING: E28D
QUANTITY_KIND: folding stability dG
UNIT_ABBREVIATION: kcal/mol
QUANTITATIVE_READOUT: 1.34

MUTATION_STRING: N14I
QUANTITY_KIND: folding stability dG
UNIT_ABBREVIATION: kcal/mol
QUANTITATIVE_READOUT: 0.929

MUTATION_STRING: V35A
QUANTITY_KIND: folding stability dG
UNIT_ABBREVIATION: kcal/mol
QUANTITATIVE_READOUT: 1.53
